Test: Primary screen of SERS intensities of CyNAMLA-functionalized AuNPs (compact Raman scanner)
Type: physicochemical
Conditions: SERS spectra of CyNAMLA-functionalized AuNPs; excitation at 785 nm, laser power 60 mW
Readout Name: Raman intensity

CCCN1/C(=C/C=C2\CCCC(/C=C/C3=[N+](CCCNC(=O)CCCCC4CCSS4)c4ccccc4C3(C)C)=C2N(CCc2cccc(F)c2)C(C)=O)C(C)(C)c2ccccc21.O=C([O-])C(F)(F)F (centres unmarked) [CyNAMLA-405] | 12149
CCCCCCCN(C(C)=O)C1=C(/C=C/C2=[N+](CCCNC(=O)CCCCC3CCSS3)c3ccccc3C2(C)C)CCC/C1=C\C=C1\N(CCC)c2ccccc2C1(C)C.O=C([O-])C(F)(F)F (centres unmarked) [CyNAMLA-277] | 2046
CCCCCCCCCCCCCN(C(C)=O)C1=C(/C=C/C2=[N+](CCCNC(=O)CCCCC3CCSS3)c3ccccc3C2(C)C)CCC/C1=C\C=C1\N(CCC)c2ccccc2C1(C)C.O=C([O-])C(F)(F)F (centres unmarked) [CyNAMLA-55] | 1125
CCCCCCCCCCN(C(C)=O)C1=C(/C=C/C2=[N+](CCCNC(=O)CCCCC3CCSS3)c3ccccc3C2(C)C)CCC/C1=C\C=C1\N(CCC)c2ccccc2C1(C)C.O=C([O-])C(F)(F)F (centres unmarked) [CyNAMLA-407] | 3000

Kindly consider the entry below.
### Prompt Answer with the recorded Raman intensity for the compound listed here: CCCC(C)N(C(C)=O)C1=C(/C=C/C2=[N+](CCCNC(=O)CCCCC3CCSS3)c3ccccc3C2(C)C)CCC/C1=C\C=C1\N(CCC)c2ccccc2C1(C)C.O=C([O-])C(F)(F)F (centres unmarked) [CyNAMLA-185]
### Response 4603
